Assay: Spectral parameters for absorption and fluorescence of ADH substrates and products
Type: physicochemical
Details: Mes buffer (45 mM), pH 7.0
endpoint.label: Absorption εmax

> print(dat)
                                   compound   endpoint.label             result
1  COc1ccc(CO)c2ccccc12 [IB, 4-methoxy-1-naphthalenemethanol]  Absorption εmax   5,400 M^-1 cm^-1
2  COc1ccc2cc(C=O)ccc2c1 [IIA, 6-methoxy-2-naphthaldehyde]  Absorption εmax  14,400 M^-1 cm^-1
3  COc1ccc(C=O)c2ccccc12 [IA, 4-methoxy-1-naphthaldehyde]  Absorption εmax  13,100 M^-1 cm^-1
4  COc1ccc2cc(CO)ccc2c1 [IIB, 6-methoxy-2-naphthalenemethanol]  Absorption εmax   1,250 M^-1 cm^-1

###

Examples of compounds with documented Fluorescence .phi. (quantum yield) follow.
Assay: Spectral parameters for absorption and fluorescence of ADH substrates and products
Format: physicochemical
Conditions: Mes buffer (45 mM), pH 7.0
endpoint.label: Fluorescence .phi. (quantum yield)

> print(dat)
        structure.string                      endpoint.label  readout.number
1  COc1ccc(C=O)c2ccccc12  Fluorescence .phi. (quantum yield)           0.003
2   COc1ccc(CO)c2ccccc12  Fluorescence .phi. (quantum yield)            0.36
3  COc1ccc2cc(C=O)ccc2c1  Fluorescence .phi. (quantum yield)            0.22
4   COc1ccc2cc(CO)ccc2c1  Fluorescence .phi. (quantum yield)            0.26

###

Test: Spectral parameters for absorption and fluorescence of ADH substrates and products
Format: physicochemical
Conditions: Mes buffer (45 mM), pH 7.0
endpoint.label: Fluorescence λmax (nm)

> print(dat)
                                   molecule     endpoint.label  value.units  readout.number
1  COc1ccc(C=O)c2ccccc12 [IA, 4-methoxy-1-naphthaldehyde]  Fluorescence λmax           nm             420
2  COc1ccc2cc(CO)ccc2c1 [IIB, 6-methoxy-2-naphthalenemethanol]  Fluorescence λmax           nm             355
3  COc1ccc(CO)c2ccccc12 [IB, 4-methoxy-1-naphthalenemethanol]  Fluorescence λmax           nm             370
4  COc1ccc2cc(C=O)ccc2c1 [IIA, 6-methoxy-2-naphthaldehyde]  Fluorescence λmax           nm             450

###

Assay: Spectral parameters for absorption and fluorescence of ADH substrates and products
Assay type: physicochemical
Conditions: Mes buffer (45 mM), pH 7.0
Experimental: The spectral parameters for 4-methoxy-1-naphthaldehyde (IA), 6-methoxy-2-naphthaldehyde (IIA) and their reduction products (IB and IIB, respectively) are shown in Table I. Ultraviolet absorption spectra were measured on a Cary 219 or Hewlett-Packard 8451 spectrophotometer. […] Changes in fluorescence as a result of oxidation or reduction of the substrate was then measured in the ratio mode. […]
Examples of compounds with documented Absorption λmax follow.
endpoint.label: Absorption λmax (nm)

> print(dat)
        structure.string  value.units  readout.number
1   COc1ccc2cc(CO)ccc2c1           nm             329
2  COc1ccc(C=O)c2ccccc12           nm             332
3   COc1ccc(CO)c2ccccc12           nm             297
4  COc1ccc2cc(C=O)ccc2c1           nm             315
